target: PERK (Homo sapiens (Human), UniProt Q9NZJ5); experiment: PERK cellular assay (TR-FRET, HEK293-EGFP-eIF2α cells, tunicamycin-induced ER stress); assay type: cell-based; conditions: tunicamycin 2 hours, read-out: Cellular IC50 (μM) (EIF2a)
Sequence (Q9NZJ5 30-1116): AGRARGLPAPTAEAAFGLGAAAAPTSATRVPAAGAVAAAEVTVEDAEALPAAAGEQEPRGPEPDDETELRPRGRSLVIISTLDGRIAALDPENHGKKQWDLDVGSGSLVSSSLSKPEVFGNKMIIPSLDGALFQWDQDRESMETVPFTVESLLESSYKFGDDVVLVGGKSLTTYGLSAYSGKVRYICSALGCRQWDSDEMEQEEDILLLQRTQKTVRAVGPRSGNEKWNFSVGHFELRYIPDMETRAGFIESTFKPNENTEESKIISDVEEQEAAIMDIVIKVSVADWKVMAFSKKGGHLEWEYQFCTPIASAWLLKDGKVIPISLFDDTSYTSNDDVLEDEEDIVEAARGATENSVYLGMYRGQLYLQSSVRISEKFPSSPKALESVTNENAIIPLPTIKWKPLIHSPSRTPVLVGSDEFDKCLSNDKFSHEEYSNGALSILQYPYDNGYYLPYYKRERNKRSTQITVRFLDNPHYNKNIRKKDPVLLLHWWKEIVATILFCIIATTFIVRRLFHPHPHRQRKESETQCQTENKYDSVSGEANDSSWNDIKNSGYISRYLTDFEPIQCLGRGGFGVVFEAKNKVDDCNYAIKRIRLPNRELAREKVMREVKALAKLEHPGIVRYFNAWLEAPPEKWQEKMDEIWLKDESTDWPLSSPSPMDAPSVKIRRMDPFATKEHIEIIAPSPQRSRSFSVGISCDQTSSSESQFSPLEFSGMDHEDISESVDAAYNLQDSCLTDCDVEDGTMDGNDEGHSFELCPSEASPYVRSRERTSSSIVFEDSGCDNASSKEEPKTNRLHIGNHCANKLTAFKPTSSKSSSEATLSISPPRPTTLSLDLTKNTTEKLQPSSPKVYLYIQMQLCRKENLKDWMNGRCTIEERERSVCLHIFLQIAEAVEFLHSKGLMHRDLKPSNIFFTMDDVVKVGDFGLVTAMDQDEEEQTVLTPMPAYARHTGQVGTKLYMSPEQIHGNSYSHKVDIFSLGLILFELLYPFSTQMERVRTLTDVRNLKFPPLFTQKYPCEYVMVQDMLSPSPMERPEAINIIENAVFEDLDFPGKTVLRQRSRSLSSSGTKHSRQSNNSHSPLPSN
MEASURED_ATTRIBUTE: IC50

So what IC50 did Cc1cc(NC(=O)C(O)c2cccc(C(F)(F)F)c2)ncc1-c1cnc(N)c(C(=O)NC(C)C)c1 (stereo not shown) [Example 128] get with PERK (Homo sapiens (Human), UniProt Q9NZJ5)? > 5 µM

Notebook: pull reported IC50 for PERK (Homo sapiens (Human), UniProt Q9NZJ5), entry Cc1cc(NC(=O)C(O)c2cc(F)cc(F)c2)ccc1-c1cnc(N)c(C(=O)NCC(C)C)c1 (stereo not shown) [Example 21] 0.251 to 0.5 µM

Could you share what IC50 was measured for Cc1cc(NC(=O)CCc2ccccc2)ccc1-c1cnc(N)c(C(=O)NC(C)C)c1 [Example 188] , tested on PERK (Homo sapiens (Human), UniProt Q9NZJ5)? 2 to 3 µM

Look up IC50 with PERK (Homo sapiens (Human), UniProt Q9NZJ5) for this molecule: Cc1cc(NC(=O)Cc2cncc3ccccc23)ccc1-c1cnc(N)c(C(=O)NC(C)C)c1 [Example 210] 1 to 2 µM

----------
Target: EIF2AK3 (PERK) catalytic domain (amino acids 536-1116) (Homo sapiens (Human))
Test: PERK in vitro activity assay (isolated), TR-FRET kinase assay
Conditions: isolated PERK enzyme, 1.5 μM ATP, GFP-eIF2a substrate; read-out: Biochemical IC50
From the text: PERK In Vitro Activity Assay (Isolated): […] Express and purify HIS-SUMO-GCN2 catalytic domain (amino acids 584-1019) from E. coli. […] Monitor the resulting fluorescence in an EnVison® Multilabel reader (PerkinElmer, Waltham, MA). […]
MEASURED_ATTRIBUTE: IC50

Sample answers from the record:
COMPOUND: Cc1ccc(-c2ccc(NC(=O)C(O)c3cc(F)cc(F)c3)cc2C)cn1 (stereo not shown) [Example 181]
IC50: > 5000 nM
--
COMPOUND: Cc1cc(NC(=O)C(O)c2cc(F)cc(F)c2)ccc1-c1cnc(N)c(C(=O)NC2CN(C)C2)c1 (stereo not shown) [Example 47]
IC50: 1 to 25 nM
--
COMPOUND: CNc1ccc(-c2ccc(NC(=O)C(O)c3cc(F)cc(F)c3)cc2C)cn1 (stereo not shown) [Example 173]
IC50: 101 to 250 nM

For the compound CCNC(=O)c1cc(-c2ccc(NC(=O)C(O)c3cc(F)cc(F)c3)cc2C)cnc1N (single isomer, unassigned) [Example 12] , what IC50 is on record? 1 to 25 nM

----------
biological target: UniProtKB Q9NZJ5; experiment: PERK cellular assay (TR-FRET, HEK293-EGFP-eIF2α cells, tunicamycin-induced ER stress); assay type: cell-based; settings: tunicamycin 2 hours, read-out: Cellular IC50 (μM) (EIF2a)
# IC50 per record follows

Here are 5 compounds together with their reported answers.
COMPOUND: CC(C)NC(=O)c1cc(-c2ccc(NC(=O)C(O)c3cc(F)cc(F)c3)cc2Cl)cnc1N (single isomer, unassigned) [Example 34]
IC50: 0.001 to 0.025 µM
//
COMPOUND: Cc1cc(NC(=O)C(O)c2cc(F)cc(F)c2)ccc1-c1cnc(N)c(C(=O)NC2COC2)n1 (stereo not drawn) [Example 142]
IC50: 1 to 2 µM
//
COMPOUND: CCc1cccc(C(O)C(=O)Nc2ccc(-c3cnc(N)c(C(=O)NC(C)C)c3)c(Cl)c2)c1 (stereo not drawn) [Example 95]
IC50: 0.101 to 0.25 µM
//
COMPOUND: COc1cc(NC(=O)C(O)c2cc(F)cc(F)c2)ccc1-c1cnc(N)c(C(=O)NC(C)C)c1 (stereo not drawn)
IC50: 0.251 to 0.5 µM
//
COMPOUND: COC(C(=O)Nc1ccc(-c2cnc(N)c(C(=O)NC(C)C)c2)c(C)c1)c1ccccc1 (stereo not drawn)
IC50: 3 to 4 µM

Give the measured IC50 of Cc1cc(NC(=O)C(O)c2cccc(Cl)c2)ccc1-c1cnc(N)c(C(=O)NC(C)C)c1 (stereo not drawn) [Example 68] . 0.501 to 1 µM

Need IC50 of `Cc1cc(NC(=O)Cc2ccc(C(F)(F)F)cc2)ccc1-c1cnc(N)c(C(=O)NC(C)C)c1` , thanks. 1 to 2 µM

I have this compound here, Cc1cc(NC(=O)C(O)c2cccc3cnn(C)c23)ccc1-c1cnc(N)c(C(=O)NC(C)C)c1 (stereo not drawn) [Example 76] , and I need its recorded IC50. 3 to 4 µM

Returns the measured IC50 for the input compound. Input: `Cc1cccc(CC(=O)Nc2ccc(-c3cnc(N)c(C(=O)NC(C)C)c3)c(C)c2)n1` 0.251 to 0.5 µM

Requested field: IC50. Item: CCc1cc(NC(=O)C(O)c2cc(F)cc(F)c2)ccc1-c1cnc(N)c(C(=O)NC2COC2)n1 (stereo not drawn) [Example 159] 0.101 to 0.25 µM

// IC50 lookup, key: CCc1cccc(C(O)C(=O)Nc2ccc(-c3cnc(N)c(C(=O)NC(C)C)c3)c(C)c2)c1 (single isomer, unassigned) [Example 73] 0.251 to 0.5 µM

# query: IC50 of entry Cc1cc(NC(=O)C(O)c2cc(F)cc(F)c2)ccc1-c1cnc(N)c(C(=O)NC(C)C)n1 (stereo not drawn) [Example 133] 0.101 to 0.25 µM
